Reference source: PubChem BioAssay

subject-of-test: L-lactate dehydrogenase (Plasmodium falciparum (isolate CDC / Honduras)) (UniProt Q27743)
Sequence (Q27743 whole entry, looked up): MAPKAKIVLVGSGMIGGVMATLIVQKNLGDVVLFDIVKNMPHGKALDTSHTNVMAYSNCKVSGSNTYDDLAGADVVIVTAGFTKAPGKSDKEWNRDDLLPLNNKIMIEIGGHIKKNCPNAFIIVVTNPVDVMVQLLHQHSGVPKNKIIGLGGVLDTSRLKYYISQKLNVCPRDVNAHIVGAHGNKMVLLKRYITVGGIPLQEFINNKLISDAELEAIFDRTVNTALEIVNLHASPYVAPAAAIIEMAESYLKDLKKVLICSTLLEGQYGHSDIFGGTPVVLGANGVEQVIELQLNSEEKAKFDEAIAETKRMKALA
test-description: PfLDH activity inhibition – cell lysate, 3D7 strain, counter-screen for P. falciparum growth inhibition project (AID 2304);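 note: 0% = vehicle and 100% = reference inhibitor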
run-parameters: P. falciparum 3D7 crude extract, LDH APAD/NBT absorbance; at 2 µM; stronger effect = higher value
measured-property: inhibition (%)
Please reply with the bare figure in % and do not write the unit itself.

CC(C)CNCc1cccc(-c2cccc(CN(CCN(C)C)C(=O)Nc3ccccc3)c2)c1 ... 4

Let us examine a further case.
Sure, the documented inhibition for CC(C)(C)NCC(O)COc1ccc(Cl)cc1C1=NNC(=O)CC1 (centres undefined) is -2

###

test-description: human hepatoma cell viability loss – ATP luminescence, cytotoxicity control for P. falciparum antimalarial project, primary screen (AID 2303);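 note: 0% = DMSO wells and 100% = digitonin-killed cells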
run-parameters: HepG2 viability, 24-48 h, at 10 µM, stronger effect = higher value
Each entry below lists one item and its recorded inhibition value.
Please reply with the bare figure in % and do not write the unit itself.

Recorded inhibition, per entry:
COc1ccc2nccc([C@@H](O)CN3CCC(NCc4ccc5c(c4)NC(=O)CO5)CC3)c2c1 ... 1
COc1ccc(NC(=O)NC2CCN(CCCCCNC(=O)/C=C/c3ccc(Cl)c(Cl)c3)CC2)cc1 ... 5
COc1cc(Nc2ncc3c(C)nc(-c4cccc(Nc5ccc(CN6CCS(=O)(=O)CC6)cc5)c4)n3n2)cc(OC)c1OC ... 2
CCCCCCn1c(Sc2ccc(C#N)c([N+](=O)[O-])c2)nnc1-c1ccc(Cl)cc1 ... 23
O=C(N[C@@H](CC1CCCCC1)C(=O)NCCN1CCCC1)c1ccc(O)c(-c2ccc(Cl)c(Cl)c2)c1 ... 16

Sure, the documented inhibition for CC(C)Oc1cccc(-c2ccc(C(=O)NCC3CCCN(Cc4cccc(C(F)(F)F)c4)C3)s2)c1 (stereo unspecified) is 10

Sure, the documented inhibition for Cc1cc(-c2ccc(NC(=O)N3CCc4cc(Br)c(N5CCN(C)CC5)cc43)cc2)cc(C)n1 is 29

Sure, the documented inhibition for O=C(/C=C/c1ccccc1)N1CCOC(CCN2CCC(c3ccccc3)CC2)(c2ccc(Cl)c(Cl)c2)C1 (stereo unspecified) is 4

###

test-description: antimalarial activity against Dd2 strain (AID 2302);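 note: 0% = DMSO untreated growth and 100% = chloroquine plus artemisinin killed control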
run-parameters: P. falciparum Dd2 in RBCs, LDH growth readout, 72 h; at 2 µM; stronger effect = higher value
Non-standard residues stand in square brackets, D forms with d. Residues, ends and D or L forms follow the SMILES beside them. *: point of attachment. Butanoyl(4-(4-HOPh)) = O=C(CCCc1ccc(O)cc1)*
Each entry gets 0 (no) if its growth inhibition stays under 40%, and 1 (yes) if its growth inhibition is 40% or above.

Recorded results for 3 molecules are shown here.
CC(=O)c1ccc2cc(C(=O)NC3CCC(CCN4CCc5ccc(-c6noc(C)n6)cc5CC4)CC3)[nH]c2c1 (stereo not drawn) ... 1 (yes)
COc1cc(F)c2ncc(Cl)c([C@H](O)CN3CCC(NCc4ccc5c(n4)NC(=O)CO5)CC3)c2c1 ... 1 (yes)
COc1ccc2ncc(Cl)c(CCN3CCC(NCc4ccc5c(n4)NC(=O)CS5)CC3)c2c1 ... 0 (no)

hey, is growth inhibition for this one >= 40%? Cc1ccc(Nc2nc(C)cc(Nc3cccc(NS(C)(=O)=O)c3)n2)cc1
0 (no)

hey, is growth inhibition for this one >= 40%? N#Cc1cccc(-c2ccc(C(=O)Nc3ccc4c(c3)CCN(C3CCC3)CC4)cn2)c1
0 (no)

hey, is growth inhibition for this one >= 40%? O=C(/C=C/c1ccc([N+](=O)[O-])cc1)N1CCC(NS(=O)(=O)c2ccc(Br)cc2)CC1
0 (no)

hey, is growth inhibition for this one >= 40%? O=C(NCC(=O)N1CCC[C@H]1C(=O)O)[C@@H](Cc1ccccc1)NC(=O)[C@@H]1CCCN1C(=O)CCCc1ccc(O)cc1 ({Butanoyl(4-(4-HOPh))}-P[dF]GP-OH)
0 (no)

hey, is growth inhibition for this one >= 40%? O=[N+]([O-])c1cccc(CNC2CCN(Cc3ccc(Cl)c(Cl)c3)CC2)c1
1 (yes)
